Here, each record is paired with measured residual metabolism (% of control), E2-17-β-D-glucuronide data.
# Test system: UGT enzymes of human liver microsomes
# Construct: residual metabolism (% of control), E2-17-β-D-glucuronide; other: liver 032101; residual metabolism (% of control), E2-17-β-D-glucuronide
# EXPERIMENT: Inhibition of estradiol (E2) glucuronidation in human liver microsomes
# Assay type: biochemical
# RUN_CONDITIONS: liver 032101; E2 50 μM; inhibitor 50 μM

*Q* Supply recorded residual metabolism (% of control), E2-17-β-D-glucuronide for O=c1c(O)c(-c2ccc(O)c(O)c2)oc2cc(O)cc(O)c12 [Quercetin] here.
*A* 72 (6) %

*Q* Answer with reported residual metabolism (% of control), E2-17-β-D-glucuronide of CCCCCCCCOC(=O)c1cc(O)c(O)c(O)c1 [Octyl gallate]
*A* 88 (1) %

*Q* Report residual metabolism (% of control), E2-17-β-D-glucuronide, nothing else, for this molecule: O=C(O[C@@H]1Cc2c(O)cc(O)cc2O[C@@H]1c1cc(O)c(O)c(O)c1)c1cc(O)c(O)c(O)c1 [Epigallocatechin gallate]
*A* 82 (2) %

*Q* Find the measured residual metabolism (% of control), E2-17-β-D-glucuronide of O=C(O[C@@H]1Cc2c(O)cc(O)cc2O[C@@H]1c1ccc(O)c(O)c1)c1cc(O)c(O)c(O)c1 [Epicatechin gallate] and report it.
*A* 83 (0) %

*Q* Please report residual metabolism (% of control), E2-17-β-D-glucuronide for the following molecule: O=C(O[C@@H]1Cc2c(O)cc(O)cc2O[C@H]1c1cc(O)c(O)c(O)c1)c1cc(O)c(O)c(O)c1 [Gallocatechin gallate]
*A* 69 (4) %

====

# Test system: UGT enzymes of human liver microsomes
# Construct: other: liver 062101
# EXPERIMENT: Inhibition of 2ME2 glucuronidation (MG1, MG2) in human liver microsomes
# Format: biochemical
# RUN_CONDITIONS: liver 062101; 2ME2 50 μM; inhibitor 50 μM
Catalogue of compounds with associated residual metabolism (% of control), 2ME2 MG1

compound="O=C(O[C@@H]1Cc2c(O)cc(O)cc2O[C@@H]1c1cc(O)c(O)c(O)c1)c1cc(O)c(O)c(O)c1 [Epigallocatechin gallate]" reported_result="48 (2) %"

*Q* Determine from records and report residual metabolism (% of control), 2ME2 MG1 for CCCCCCCCOC(=O)c1cc(O)c(O)c(O)c1 [Octyl gallate]
*A* 68 (3) %

*Q* For O=C(O[C@@H]1Cc2c(O)cc(O)cc2O[C@@H]1c1ccc(O)c(O)c1)c1cc(O)c(O)c(O)c1 [Epicatechin gallate] , write its residual metabolism (% of control), 2ME2 MG1.
*A* 33 (1) %

*Q* Supply measured residual metabolism (% of control), 2ME2 MG1 of O=C1C[C@@H](c2ccc(O)cc2)Oc2cc(O)cc(O)c21 in your reply.
*A* 47 (3) %

*Q* Assign residual metabolism (% of control), 2ME2 MG1 to the following record: O=C(O)c1cc(-c2ccc(F)cc2F)ccc1O [Diflunisal, reference compound]
*A* 63 (2) %

*Q* Identify measured residual metabolism (% of control), 2ME2 MG1 associated with O=c1c(O)c(-c2ccc(O)c(O)c2)oc2cc(O)cc(O)c12
*A* 30 (4) %

*Q* Specify reported residual metabolism (% of control), 2ME2 MG1 for the compound shown: CC1CCC(C(C)C)C(O)C1 (stereo not shown)
*A* 96 (2) %

====

residual metabolism (% of control), 2ME2 MG2 by entry:
# Test system: UGT enzymes of human liver microsomes
# EXPERIMENT: Inhibition of 2ME2 glucuronidation (MG1, MG2) in human liver microsomes
# Format: biochemical
# RUN_CONDITIONS: liver 062101; 2ME2 50 μM; inhibitor 10 μM

Some entries whose results are on file:
compound="CC/C(=C(/CC)c1ccc(O)cc1)c1ccc(O)cc1 [Diethylstilbestrol, reference compound]" reported_result="632 (4) %"
compound="O=C(O[C@@H]1Cc2c(O)cc(O)cc2O[C@H]1c1cc(O)c(O)c(O)c1)c1cc(O)c(O)c(O)c1 [Gallocatechin gallate]" reported_result="84 (1) %"
compound="O=C(c1ccc(OCCN2CCCCC2)cc1)c1c(-c2ccc(O)cc2)sc2cc(O)ccc12 [Raloxifene, raloxifene, reference compound]" reported_result="88 (0) %"

Now consider a different compound.
*Q* Identify measured residual metabolism (% of control), 2ME2 MG2 associated with O=C(OC[C@H]1O[C@@H](OC(=O)c2cc(O)c(O)c(OC(=O)c3cc(O)c(O)c(O)c3)c2)[C@H](OC(=O)c2cc(O)c(O)c(OC(=O)c3cc(O)c(O)c(O)c3)c2)[C@@H](OC(=O)c2cc(O)c(O)c(OC(=O)c3cc(O)c(O)c(O)c3)c2)[C@@H]1OC(=O)c1cc(O)c(O)c(OC(=O)c2cc(O)c(O)c(O)c2)c1)c1cc(O)c(O)c(OC(=O)c2cc(O)c(O)c(O)c2)c1
*A* 69 (6) %

====

Each entry below lists one item and its recorded activity at 15 min, 25 µM value.
# TARGET_SYSTEM: UGT1A1 (Homo sapiens)
# Sequence (P22309 26-533): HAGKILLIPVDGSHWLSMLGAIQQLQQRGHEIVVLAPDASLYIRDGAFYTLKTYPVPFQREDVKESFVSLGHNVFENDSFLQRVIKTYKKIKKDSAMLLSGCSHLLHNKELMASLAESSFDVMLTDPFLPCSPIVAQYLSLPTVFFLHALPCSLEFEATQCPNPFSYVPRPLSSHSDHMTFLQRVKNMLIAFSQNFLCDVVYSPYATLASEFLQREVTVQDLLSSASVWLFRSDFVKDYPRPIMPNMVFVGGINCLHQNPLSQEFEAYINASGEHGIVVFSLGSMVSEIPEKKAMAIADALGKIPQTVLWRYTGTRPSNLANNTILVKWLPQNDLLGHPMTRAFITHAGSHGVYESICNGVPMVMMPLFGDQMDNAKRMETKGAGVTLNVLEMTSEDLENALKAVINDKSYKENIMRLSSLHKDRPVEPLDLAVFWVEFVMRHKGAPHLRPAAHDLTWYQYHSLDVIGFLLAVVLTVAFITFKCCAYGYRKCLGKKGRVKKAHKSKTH
# EXPERIMENT: in vitro
# RUN_CONDITIONS: pH 7.5, Inhibition of raloxifene glucuronidation, G2, UGT1A1
Quick reminder: number only, in %, skip the unit.

Guide cases for activity at 15 min, 25 µM, answers given:
compound=O=c1c(O)c(-c2ccc(O)c(O)c2)oc2cc(O)cc(O)c12 reported_result=13
compound="COc1cc(C2Oc3cc([C@H]4Oc5cc(O)cc(O)c5C(=O)[C@@H]4O)ccc3OC2CO)ccc1O (stereo partly shown)" reported_result=33
compound="O=C(O)c1cc(-c2ccc(F)cc2F)ccc1O [Diflunisal, reference compound]" reported_result=53

Okay, now this compound:
*Q* Specify reported activity at 15 min, 25 µM for the compound shown: O=C(O[C@@H]1Cc2c(O)cc(O)cc2O[C@@H]1c1ccc(O)c(O)c1)c1cc(O)c(O)c(O)c1 [Epicatechin gallate]
*A* 43

====

# Tested on: UGT enzymes of human liver microsomes
# EXPERIMENT: Inhibition of estradiol (E2) glucuronidation in human liver microsomes
# Type: biochemical
# RUN_CONDITIONS: liver 062101; E2 50 μM; inhibitor 50 μM
# Description: Compounds were eluted using a binary solvent gradient system where solvent A was dilute phosphoric acid (pH 3) and solvent B was 80:20 acetonitrile-methanol. […] Detection was at 280 nm.
READOUT_KIND: residual metabolism (% of control), E2-17-β-D-glucuronide

*Q* Note down residual metabolism (% of control), E2-17-β-D-glucuronide recorded for O=C(O[C@@H]1Cc2c(O)cc(O)cc2O[C@@H]1c1ccc(O)c(O)c1)c1cc(O)c(O)c(O)c1 [Epicatechin gallate]
*A* 67 (1) %

*Q* Tell me its residual metabolism (% of control), E2-17-β-D-glucuronide given O=C(O[C@@H]1Cc2c(O)cc(O)cc2O[C@@H]1c1cc(O)c(O)c(O)c1)c1cc(O)c(O)c(O)c1 [Epigallocatechin gallate] as the entry.
*A* 70 (1) %

*Q* Give a short answer stating reported residual metabolism (% of control), E2-17-β-D-glucuronide for O=c1c(O)c(-c2ccc(O)c(O)c2)oc2cc(O)cc(O)c12 .
*A* 69 (1) %

*Q* Give residual metabolism (% of control), E2-17-β-D-glucuronide for O=C(O[C@@H]1Cc2c(O)cc(O)cc2O[C@H]1c1cc(O)c(O)c(O)c1)c1cc(O)c(O)c(O)c1 [Gallocatechin gallate]
*A* 55 (2) %

====

# TARGET_SYSTEM: UGT1A9 (Homo sapiens)
# Sequence (O60656 26-530): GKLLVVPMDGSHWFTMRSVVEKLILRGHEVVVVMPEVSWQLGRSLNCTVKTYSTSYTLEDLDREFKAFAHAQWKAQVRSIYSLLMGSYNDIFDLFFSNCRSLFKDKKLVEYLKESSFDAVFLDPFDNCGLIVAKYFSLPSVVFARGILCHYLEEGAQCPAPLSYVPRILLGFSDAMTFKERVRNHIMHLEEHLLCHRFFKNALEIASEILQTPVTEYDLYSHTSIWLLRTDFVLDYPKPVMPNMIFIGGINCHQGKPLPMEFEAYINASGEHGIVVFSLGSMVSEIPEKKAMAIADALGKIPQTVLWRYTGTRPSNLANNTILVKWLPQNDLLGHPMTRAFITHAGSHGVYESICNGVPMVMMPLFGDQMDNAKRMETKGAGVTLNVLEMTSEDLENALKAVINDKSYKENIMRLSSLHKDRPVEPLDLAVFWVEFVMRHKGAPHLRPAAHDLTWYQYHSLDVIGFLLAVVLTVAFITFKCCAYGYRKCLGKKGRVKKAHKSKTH
# EXPERIMENT: Inhibition of raloxifene glucuronidation by recombinant UGT1A9 Supersomes
# RUN_CONDITIONS: human, Supersomes with recombinant human UGT1A9, pH 7.5, probe raloxifene 50 μM, formation of glucuronide G2, % of control metabolism, raloxifene G2, UGT1A9; inhibitor 2 μM
READOUT_KIND: activity at 15 min, 2 μM
Write your answer as a measured quantity: the number, then the unit.

*Q* Report measured activity at 15 min, 2 μM; entry is CC/C(=C(/CC)c1ccc(O)cc1)c1ccc(O)cc1 [Diethylstilbestrol, reference compound]
*A* 175%
